# Activity values compiled below
- tested system: Neuronal acetylcholine receptor; alpha4/beta2 (Homo sapiens) (UniProt P17787+P43681)
- test protocol: Positive allosteric modulation at human alpha4beta2 nAChR expressed in HEK293 cells assessed as potentiation of (3R)-1-pyridin-3-ylpyrrolidin-3-amine-induced calcium flux preincubated for 5 mins followed by agonist addition measured for 3 to 5 mins by FLIPR assay relative to control
- Assay type: cell-based
- Design: concentration or dose not given beside the values

| smiles representation | Activity |
| --- | --- |
| Fc1ccc(-c2nc(-c3cccnc3)no2)cc1F | 200 to 400% |
| c1cc(-c2noc(-c3cccnc3)n2)cc(-c2nnn[nH]2)c1 | 90 to 120% |
| CC(=O)c1cccc(-c2nc(-c3cccnc3)no2)c1 | 150 to 200% |
| Fc1cccc(-c2nc(-c3cccnc3)no2)c1F | 200 to 400% |
| O=[N+]([O-])c1cccc(-c2nc(-c3cccnc3)no2)c1 | 200 to 400% |
| N#Cc1ccc(-c2nc(-c3cccnc3)no2)cc1 | 150 to 200% |

###

- tested system: Neuronal acetylcholine receptor; alpha4/beta2 (Homo sapiens) (UniProt P17787+P43681)
- test protocol: Positive allosteric modulation at human alpha4beta2 nAChR expressed in HEK293 cells assessed as potentiation of 5-[(2R)-azetidin-2-ylmethoxy]-2-chloropyridine-induced calcium flux preincubated for 5 mins followed by agonist addition measured for 3 to 5 mins by FLIPR assay relative to control
- Type: cell-based
- Parameters: concentration or dose not given beside the values

| smiles representation | Activity |
| --- | --- |
| Oc1cncc(-c2nc(-c3cccnc3)no2)c1 | 90 to 120% |
| N#Cc1ccc(-c2nc(-c3cccnc3)no2)cc1 | 150 to 200% |
| N#Cc1cccc(-c2noc(-c3cccnc3)n2)c1 | 200 to 400% |
| O=c1ccc(-c2noc(-c3cccnc3)n2)c[nH]1 | 120 to 150% |
| c1cncc(-c2noc(-c3cccnc3)n2)c1 | 200 to 400% |
| Brc1cncc(-c2nc(-c3cccnc3)no2)c1 | 120 to 150% |
| CC(=O)c1cccc(-c2nc(-c3cccnc3)no2)c1 | 150 to 200% |
| O=[N+]([O-])c1cccc(-c2nc(-c3cccnc3)no2)c1 | 200 to 400% |
| Clc1cc(-c2noc(-c3cccnc3)n2)ccn1 | 120 to 150% |
| Fc1cccc(-c2nc(-c3cccnc3)no2)c1F | 200 to 400% |
| NS(=O)(=O)c1cccc(-c2nc(-c3cccnc3)no2)c1 | 200 to 400% |

###

# Activity values compiled below
- tested system: Neuronal acetylcholine receptor; alpha4/beta2 (Homo sapiens) (UniProt P17787+P43681)
- test protocol: Positive allosteric modulation at human alpha4beta2 nAChR expressed in HEK293 cells assessed as potentiation of 5-[(2R)-azetidin-2-ylmethoxy]-2-chloropyridine-induced calcium flux preincubated for 5 mins followed by agonist addition measured for 3 to 5 mins by FLIPR assay relative to control
- Assay type: cell-based
- Set-up: concentration or dose not given beside the values
measured metric: Activity

| smiles representation | result |
| --- | --- |
| Fc1ccc(-c2nc(-c3cccnc3)no2)cc1F | 200 to 400% |
| c1cc(-c2noc(-c3cccnc3)n2)cc(-c2nnn[nH]2)c1 | 90 to 120% |
| CS(=O)(=O)c1cccc(-c2nc(-c3cccnc3)no2)c1 | 120 to 150% |
| Cc1ccc(-c2noc(-c3cccc(C#N)c3)n2)cn1 | 150 to 200% |
| N#Cc1cccc(-c2noc(-c3ccc(Cl)nc3)n2)c1 | 150 to 200% |
| N#Cc1cccc(-c2noc(-c3ccc(F)nc3)n2)c1 | 150 to 200% |

###

- tested system: Neuronal acetylcholine receptor; alpha4/beta2 (Homo sapiens) (UniProt P17787+P43681)
- test protocol: Positive allosteric modulation at human alpha4beta2 nAChR expressed in HEK293 cells assessed as potentiation of (3R)-1-pyridin-3-ylpyrrolidin-3-amine-induced calcium flux preincubated for 5 mins followed by agonist addition measured for 3 to 5 mins by FLIPR assay relative to control
- Assay type: cell-based
- Design: concentration or dose not given beside the values
measured metric: Activity

| smiles representation | result |
| --- | --- |
| N#Cc1cccc(-c2noc(-c3ccc(Cl)nc3)n2)c1 | 150 to 200% |
| Brc1cncc(-c2nc(-c3cccnc3)no2)c1 | 120 to 150% |
| O=c1ccc(-c2noc(-c3cccnc3)n2)c[nH]1 | 120 to 150% |
| NS(=O)(=O)c1cccc(-c2nc(-c3cccnc3)no2)c1 | 200 to 400% |
| CS(=O)(=O)c1cccc(-c2nc(-c3cccnc3)no2)c1 | 120 to 150% |
| Cc1ccc(-c2noc(-c3cccc(C#N)c3)n2)cn1 | 150 to 200% |
| c1cncc(-c2noc(-c3cccnc3)n2)c1 | 200 to 400% |
| Clc1cc(-c2noc(-c3cccnc3)n2)ccn1 | 120 to 150% |
| Oc1cncc(-c2nc(-c3cccnc3)no2)c1 | 90 to 120% |
| N#Cc1cccc(-c2noc(-c3ccc(F)nc3)n2)c1 | 150 to 200% |
| N#Cc1cccc(-c2noc(-c3cccnc3)n2)c1 | 200 to 400% |
